This listing pairs binders with measured pKd.
Molecular target: gst-c-CrkSH3(1) (Example 2) (murine, UniProt Q64010)
Assay: tryptophan fluorescence titration
pKd: −log10 of the molar value.
property: pKd

INSERT INTO assay_data (binder, numeric_result) VALUES
  ('PPPALPPKAR [peptide PPPALPPKAR]', 5.24),
  ('PPPALPPKKK [peptide PPPALPPKKK]', 5.30),
  ('PPPALPPKKA [peptide PPPALPPKKA]', 5.03),
  ('PPPALPPAKR [Lys-10Ala mutant peptide (PPPALPPAKR)]', 4.66);
